# EXPERIMENTAL SYSTEM: UniProt:O14965
# Sequence (O14965 whole entry): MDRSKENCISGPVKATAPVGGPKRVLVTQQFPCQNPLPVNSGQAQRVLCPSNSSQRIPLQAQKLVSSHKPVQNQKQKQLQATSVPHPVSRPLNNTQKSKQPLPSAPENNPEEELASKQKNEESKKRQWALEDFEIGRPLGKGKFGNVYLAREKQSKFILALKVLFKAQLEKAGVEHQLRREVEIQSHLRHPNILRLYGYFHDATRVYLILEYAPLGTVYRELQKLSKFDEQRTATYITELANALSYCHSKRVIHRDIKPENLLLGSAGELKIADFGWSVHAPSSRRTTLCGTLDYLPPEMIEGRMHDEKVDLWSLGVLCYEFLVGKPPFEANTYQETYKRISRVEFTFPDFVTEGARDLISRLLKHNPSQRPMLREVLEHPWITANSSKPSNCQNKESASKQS
# METHOD NOTES: Competitive binding affinity to AURKA (unknown origin) at 10 uM in presence of ATP relative to control
Assignment: determine reported inhibition for the given compounds.

Any idea what inhibition was measured for `O[C@H]1CC[C@H](Nc2nccc(-n3ccc4ccccc43)n2)CC1` ? < 50%

Which inhibition is listed for `O[C@H]1CC[C@H](Nc2nccc(-n3nnc4ccccc43)n2)CC1` ? < 50%

Quick one: inhibition for `O=C([C@H]1CC[C@H](Nc2nccc(-n3nnc4ccccc43)n2)CC1)N1CCOCC1` ? 80%

Endpoint output: inhibition of `O[C@H]1CC[C@H](Nc2nccc(-c3n[nH]c4ccccc34)n2)CC1` . Value? 92%

Item under review: `N[C@H]1CC[C@H](Nc2nccc(-n3nnc4ccccc43)n2)CC1` . Reported inhibition? < 50%

// query inhibition value for entry `O[C@H]1CC[C@H](Nc2nccc(-n3ncc4ccccc43)n2)CC1` < 50%
